Quick reference for MFI among some binders
Substrate: ICOS (Homo sapiens (Human)) (UniProt Q9Y6W8)
Sequence (Q9Y6W8 21-199 limits assumed): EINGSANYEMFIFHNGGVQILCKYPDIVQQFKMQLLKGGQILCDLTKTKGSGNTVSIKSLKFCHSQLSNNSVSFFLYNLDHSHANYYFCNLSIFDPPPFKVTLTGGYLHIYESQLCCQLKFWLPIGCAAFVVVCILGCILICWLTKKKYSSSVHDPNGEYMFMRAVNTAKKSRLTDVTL
test: flow cytometry, transfected cells
// note: answer is a bare numeric in MFI

Consider the reported MFI for these binders:
{"binder": "ICOSL-Fc N52S/N57Y/Q100S (Fc fusion) DTQEKEVRAMVGSDVELSCACPEGSRFDLNDVYVYWQTSESKTVVTYHIPQSSSLEYVDSRYRNRALMSPAGMLRGDFSLRLFNVTPQDEQKFHCLVLSSSLGFQEVLSVEVTLHVAANFSVPVVSAPHSPSQDELTFTCTSINGYPRPNVYWINKTDNSLLDQALQNDTVFLNMRGLYDVVSVLRIARTPSVNIGCCIENVLLQQNLTVGSQTGNDIGERDKITENPVSTGEKNAAT", "MFI (MFI)": 224000}
{"binder": "ICOSL-Fc N52C/N57E/Q100S (Fc fusion) DTQEKEVRAMVGSDVELSCACPEGSRFDLNDVYVYWQTSESKTVVTYHIPQCSSLEEVDSRYRNRALMSPAGMLRGDFSLRLFNVTPQDEQKFHCLVLSSSLGFQEVLSVEVTLHVAANFSVPVVSAPHSPSQDELTFTCTSINGYPRPNVYWINKTDNSLLDQALQNDTVFLNMRGLYDVVSVLRIARTPSVNIGCCIENVLLQQNLTVGSQTGNDIGERDKITENPVSTGEKNAAT", "MFI (MFI)": 125000}

Q) For the binder ICOSL-Fc N52R/N57Y/Q100S (Fc fusion) DTQEKEVRAMVGSDVELSCACPEGSRFDLNDVYVYWQTSESKTVVTYHIPQRSSLEYVDSRYRNRALMSPAGMLRGDFSLRLFNVTPQDEQKFHCLVLSSSLGFQEVLSVEVTLHVAANFSVPVVSAPHSPSQDELTFTCTSINGYPRPNVYWINKTDNSLLDQALQNDTVFLNMRGLYDVVSVLRIARTPSVNIGCCIENVLLQQNLTVGSQTGNDIGERDKITENPVSTGEKNAAT , report MFI.
A) 229000
